- system.under.test: cIAP2-BIR3 (Homo sapiens, UniProt Q13489)
- Construct: cIAP2-BIR3
- Sequence (Q13489 238-349 limits assumed): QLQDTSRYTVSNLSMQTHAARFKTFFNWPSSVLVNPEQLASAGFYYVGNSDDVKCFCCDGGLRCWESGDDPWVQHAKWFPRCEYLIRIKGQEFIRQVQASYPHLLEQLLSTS
- assay.remarks: cIAP2-BIR3 fluorescence polarization binding assay
- test.context: FP, probe AbuRPFK-5FAM (SM5F) 5 nM, cIAP2-BIR3 80 nM, 60 min at 25° C.
pIC50: −log10 of the molar value.
Assign pIC50 to each entry below.

Please give the documented pIC50 of CN[C@@H](C)C(=O)N[C@@H](C)C(=O)N1CCC[C@H]1C(=O)N[C@@H]1CCCc2c(-c3ccc(-c4cccc5c4CCC[C@H]5NC(=O)[C@@H]4CCCN4C(=O)[C@H](C)NC(=O)[C@H](C)NC)cc3)cccc21
7.00 to 8.00

Please give the documented pIC50 of CN[C@@H](C)C(=O)N[C@H](C(=O)N1CCC[C@H]1C(=O)N[C@@H]1CCCc2c(-c3cccc(-c4cccc5c4CCC[C@H]5NC(=O)[C@@H]4CCCN4C(=O)[C@@H](NC(=O)[C@H](C)NC)C(C)(C)C)c3)cccc21)C(C)(C)C
7.00 to 8.00

Please give the documented pIC50 of CN[C@@H](C)C(=O)N[C@H](C(=O)N1CCC[C@H]1C(=O)N[C@@H]1CCCc2c(Nc3cccc4c3CCC[C@H]4NC(=O)[C@@H]3CCCN3C(=O)[C@@H](NC(=O)[C@H](C)NC)C3CCCCC3)cccc21)C1CCCCC1
7.00 to 8.00

Please give the documented pIC50 of CN[C@@H](C)C(=O)N[C@@H](C)C(=O)N1CCC[C@H]1C(=O)N[C@@H]1CCCc2c(-c3cccc(-c4cccc5c4CCC[C@H]5NC(=O)[C@@H]4CCCN4C(=O)[C@H](C)NC(=O)[C@H](C)NC)c3)cccc21
8.00 to 9.00

Data credit: patent US20220220152A1
